Hello, the source for this data is paper PMC11912475, in case you need it.

Items are presented alongside their recorded inhibition at 3 µM.
# System: Serotonin 5-HT2C (Homo sapiens, UniProt P28335)
# Construct: host or cells: CHO-K1
# Sequence (P28335 33-458): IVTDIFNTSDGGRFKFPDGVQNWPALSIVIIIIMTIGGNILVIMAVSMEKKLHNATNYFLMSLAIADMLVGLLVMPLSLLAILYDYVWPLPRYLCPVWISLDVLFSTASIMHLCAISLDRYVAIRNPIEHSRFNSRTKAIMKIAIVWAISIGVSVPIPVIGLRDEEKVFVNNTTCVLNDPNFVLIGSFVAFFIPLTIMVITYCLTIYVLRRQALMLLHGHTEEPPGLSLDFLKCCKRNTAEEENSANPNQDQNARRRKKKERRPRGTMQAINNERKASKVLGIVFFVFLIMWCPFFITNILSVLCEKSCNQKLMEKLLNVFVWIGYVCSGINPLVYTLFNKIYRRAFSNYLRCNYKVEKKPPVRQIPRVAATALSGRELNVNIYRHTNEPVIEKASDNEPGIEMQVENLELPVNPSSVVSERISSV
# Test name: Radioligand displacement binding assay, [3H]mesulergine, 5-HT2C
# Condition: 3 μM
Number in %, nothing else.

Reference set (6 entries):
CC[C@@H](O)C(C[C@@H](C)N)(c1ccccc1)c1ccccc1; 16
CC[C@H](O)C(C[C@H](C)NC)(c1ccccc1)c1ccccc1; 28
CC[C@H](O)C(C[C@H](C)N)(c1ccccc1)c1ccccc1; 19
CC[C@H](O)C(C[C@@H](C)N)(c1ccccc1)c1ccccc1; 27
CC[C@@H](O)C(C[C@H](C)NC)(c1ccccc1)c1ccccc1; 5
CCC(=O)C(C[C@H](C)N(C)C)(c1ccccc1)c1ccccc1 [(S)-methadone, reference compound]; 77

Kindly review the next compound as well.
Asked: Suppose we examine the compound CC[C@H](O)C(C[C@@H](C)NC)(c1ccccc1)c1ccccc1 ; what inhibition at 3 µM value has been reported?
Given back: 68
